Where a name gives a salt, the structure may show the parent alone.
melting point: recorded values

Entry CN1C2C=C(c3cncnc3)CC1CCC2.O=C(O)/C=C/C(=O)O (racemic) [Compound 1b] — recorded melting point = 198 to 202 °C

// sample CN1C2C=C(c3ccc4c(c3)OCO4)CC1CCC2.O=C(O)/C=C/C(=O)O (racemic) , its melting point was 159 to 163 °C

Entry COc1ccc(C2=CC3CCCC(C2)N3C)cn1 (racemic) (as salt: fumaric acid salt) [Compound 5b] , melting point reported as 116 to 124 °C

Entry CN1[C@@H]2CCC[C@H]1C[C@H](c1cccnc1)C2 [Compound 8a] , melting point reported as 69 to 70 °C

For reference, reported melting point for CN1C2C=C(c3nc4ccccc4s3)CC1CCC2.O=C(O)/C=C/C(=O)O (racemic) stands at 176 to 177 °C

Just so you know, measured melting point for CN1C2C=C(c3cncc(-c4cccnc4)c3)CC1CCC2.O=C(O)/C=C/C(=O)O (racemic) [Compound 2b] came out at 206 to 208 °C

Value of measured melting point for the entry CN1C2C=C(c3cnc4ccccc4c3)CC1CCC2.O=C(O)/C=C/C(=O)O (racemic) [Compound 6b] : 195 to 197 °C

Given item CC(=O)C1=CC2CCCC(C1)N2C.O=C(O)/C=C/C(=O)O (racemic) [Compound 2d] , the value recorded as its melting point is 149 to 151 °C
